assay: 14-day toxicity test with toxicokinetics in SD rats; format: in vivo; conditions: female, SD, rat, blood, 100 mg/kg, female SD rats, 100 mg/kg once a day, first administration; read-out: Cmax First administration
Reported Cmax values are given for each entry in this list.
Give just the number in µg/mL; leave the unit off.

[
  {
    "Compound": "C[C@@H](Cn1c(=O)nc(Nc2ccc(Oc3ccccn3)cc2)n(Cc2ccc(Cl)cc2)c1=O)C(=O)O [Compound D1, reference compound]",
    "Unit label": "µg/mL",
    "Cmax": 185
  }
]

Q: I would be grateful if you could share the reported Cmax for O=C(O)[C@H]1C[C@@H]1Cn1c(=O)[nH]/c(=N\c2ccc(Oc3ccc(F)cn3)cc2)n(Cc2ccc(Cl)cc2)c1=O [Compound H5-P1] .
Result: 112
